# System: CAKI-1 renal
# method.description: NCI-60 one-dose screen, 48 h (100 = growth as untreated, 0 = no growth, -100 = all killed)
# condition.summary: 10 µM unless noted
Compounds without any hit were thinned out: in the full panel of roughly 83,000, 20% have a hit.
Examples of molecules with documented growth follow.
Please reply with the bare figure in % and do not write the unit itself.

These solved cases illustrate the format of a correct answer.
Cc1nc(-c2cc3ccccc3oc2=O)ccc1C(=O)/C=C/c1ccc(N2CCOCC2)cc1    65.1
COc1cc2nc(-c3ccc(Cl)cc3)cc(OCCCNCC3CCCO3)c2cc1OC (stereo not given)    17.3
Cn1c(SCC(=O)c2cccs2)nc2ccccc2c1=O    82.1
CN1C(=S)N(C)C2C1NN=C1SC(c3ccccc3)=CC(=O)N12 (stereo not given)    90.8
[Cl][Ru].c1ccc(-c2cccc(-c3ccccn3)n2)nc1.c1ccc(-c2ccnc3c2ccc2c(-c4ccccc4)ccnc23)cc1    80.3
COc1cc(/C=C/C(=O)c2ccc(F)cc2)ccc1Oc1nc(NCCO)nc(N2CCOCC2)n1    71.9
CN(C)CCCNc1c2ccccc2nc2c1oc1ccc(Cl)cc12    21.4
CS(=O)(=O)c1ccc(-c2nc3ccccn3c2C=Nc2ccc(Cl)cc2)cc1    42.9

We now examine a further molecule.
-- ask Answer with the recorded growth for the molecule listed here: `CC(C)(C)Nc1nc2c(OCCc3ccccc3)cccn2c1-c1ccc(Cl)cc1`
-- reply 29.3

====

# System: MALME-3M melanoma
# method.description: NCI-60 one-dose screen, 48 h (100 = growth as untreated, 0 = no growth, -100 = all killed)
# condition.summary: 10 µM unless noted
This is part of a sample that, as a whole, favours compounds with a hit. Of some 83,000 tested, about 20% had one in any assay.
Examples of molecules with documented growth follow.
Please reply with the bare figure in % and do not write the unit itself.

-- ask Find the measured growth of `COc1cccc(NC2=CC(=O)C(C)=C(C)C2=O)c1` with MALME-3M melanoma as test system.
-- reply 101

-- ask Find the measured growth of `COc1ccccc1C(=O)CSc1nc(Nc2ccc(S(N)(=O)=O)cc2)c2ccccc2n1` with MALME-3M melanoma as test system.
-- reply 90.2

-- ask Find the measured growth of C#Cc1nc(C2=C(C)C(OC(=O)CCC(=O)O)CC2)cs1 (stereo unspecified) with MALME-3M melanoma as test system.
-- reply 107

-- ask Find the measured growth of `N#Cc1nc(-c2ccccc2)oc1S(=O)(=O)N1CCCCC1` with MALME-3M melanoma as test system.
-- reply -68.8

-- ask Find the measured growth of `CC(C)NC(=O)c1cc(-c2ccc(NC(=O)Nc3ccc(N4CCOCC4)c(C(F)(F)F)c3)cc2)nc2cccnc12` with MALME-3M melanoma as test system.
-- reply 68.3

-- ask Find the measured growth of COc1cc2nc(-c3ccc(Cl)cc3)cc(OCCCNCC3CCCO3)c2cc1OC (stereo unspecified) with MALME-3M melanoma as test system.
-- reply 12.3

-- ask Find the measured growth of `O=C1Nc2cc(Cl)ccc2/C1=C\c1ccc(OCc2ccc([N+](=O)[O-])cc2)cc1` with MALME-3M melanoma as test system.
-- reply 75.1

-- ask Find the measured growth of `CC1=C(C)C(=O)C(Nc2cccc(C(F)(F)F)c2)=C(Cl)C1=O` with MALME-3M melanoma as test system.
-- reply 94.4

====

# System: MCF7 breast
# method.description: NCI-60 one-dose screen, 48 h
# condition.summary: 10 µM unless noted
The panel holds about 83,000 compounds, 20% with a hit somewhere; the sample as a whole holds those more often. Active and inactive are the calls of the source. How the source made its calls: active means growth percent below 10; inactive means the rest.
Reply using exactly one outcome from active, inactive

Take a look at these entries with their results.
COc1cc(/C=C/C(=O)c2ccc(C)cc2)ccc1Oc1nc(NCCO)nc(N2CCOCC2)n1    active
COc1cc(OC)c(C2SCC(=O)N2Nc2ncnc3ccccc23)cc1OC (centres undefined)    inactive
CO/N=C1\CCc2c(sc(NC(=O)c3cccc(C(F)(F)F)c3)c2C(N)=O)C1    inactive
Cn1ccnc1C(=O)/C=C/c1ccc(NC(=O)Nc2ccccc2)cc1    active
CCOC(=O)c1c(Nc2ccccc2)nn2c(N)c(C#N)c(-c3ccc(Cl)cc3)nc12    inactive

-- ask Identify the outcome logged in this assay for the compound shown: `CC(C)Sc1nc(Nc2ccc(S(N)(=O)=O)cc2)c(C#N)c(-c2ccc(F)cc2)n1`
-- reply inactive

-- ask Identify the outcome logged in this assay for the compound shown: `COc1cccc(COc2ccc(/C=C3/C(=O)Nc4cc(Cl)ccc43)cc2)c1`
-- reply inactive

-- ask Identify the outcome logged in this assay for the compound shown: `N#Cc1c(-c2ccc(Cl)cc2)nc(SCc2ccc(F)cc2)nc1N1CCNCC1`
-- reply active

-- ask Identify the outcome logged in this assay for the compound shown: Cc1cc(C(NC(=O)CCCCCNc2cccc3c2C(=O)N(C2CCC(=O)NC2=O)C3=O)c2cccnc2)c(O)c2ncccc12 (centres undefined)
-- reply inactive

====

# Test system: HCC-2998 colon
# method.description: NCI-60 one-dose screen, 48 h
# condition.summary: 10 µM unless noted
This is part of a sample that, as a whole, favours compounds with a hit. Of some 83,000 tested, about 20% had one in any assay. The source made the active and inactive calls. How the source made its calls: active means growth percent below 10; inactive means the rest.
Reply using exactly one outcome from active, inactive

-- ask Identify the outcome logged in this assay for the compound shown: `CCC/C=C/C=C/C(=O)N[C@@H](Cc1cc(F)cc(F)c1)C(=O)N[C@@H]1C(=O)N2CCC[C@H]2C(=O)N2CCCC[C@H]2C(=O)N[C@@H](C)C(=O)N2C[C@H](C)C[C@H]2C(=O)O[C@H]1C`
-- reply inactive

-- ask Identify the outcome logged in this assay for the compound shown: `COc1ccc(-c2nc3ccc(-c4nnc(SCC(=O)Nc5ccc(C(=O)/C=C/c6ccc(Cl)cc6)cc5)o4)cc3[nH]2)cc1OC`
-- reply inactive

-- ask Identify the outcome logged in this assay for the compound shown: O=C(c1ccc(Cl)cc1)C1[C@H](c2ccc(Cl)cc2)[C@@H](c2ccccc2)NC12C(=O)Nc1ccc(Br)cc12 (stereo partly specified)
-- reply inactive

-- ask Identify the outcome logged in this assay for the compound shown: `CCCSc1nc(Nc2ccc(/C(C)=N\NC(N)=S)cc2)c(C#N)c(-c2ccc(OC)cc2)n1`
-- reply inactive

-- ask Identify the outcome logged in this assay for the compound shown: `Cn1ccnc1C(=O)/C=C/c1ccc(NC(=O)Nc2ccc(Cl)cc2)cc1`
-- reply inactive

-- ask Identify the outcome logged in this assay for the compound shown: `COc1ccc(C(=O)/C=C/c2ccc(OCc3ccc(Cl)cc3)c(OC)c2)cc1OC`
-- reply inactive

-- ask Identify the outcome logged in this assay for the compound shown: `O=C(CCN1C(=O)/C(=C/c2ccccc2)SC1=S)N1CCOCC1`
-- reply inactive

====

Examples of compounds with documented growth follow.
# System: A549/ATCC NSCLC
# method.description: NCI-60 one-dose screen, 48 h (100 = growth as untreated, 0 = no growth, -100 = all killed)
# condition.summary: 10 µM unless noted
About 83,000 compounds went through this panel and 20% of them were active in at least one assay; those are over-represented in the sample as a whole. Calls of active or inactive are those of the source. The calls were made as follows: active = growth percent below 10; inactive = the rest.

COc1cc(-c2nc3ccc(-c4nnc(SCC(=O)Nc5ccc(C(=O)/C=C/c6ccc(Cl)cc6)cc5)o4)cc3[nH]2)cc(OC)c1OC    101% (inactive)
CC(=O)Nc1cc(F)cc(-c2ccc3[nH]cc(-c4ccccc4)c3n2)c1    20.1% (inactive)
CC1=C(C)C(=O)C(Nc2cccc(C(F)(F)F)c2)=C(Cl)C1=O    96.8% (inactive)
COc1ccc(CNS(=O)(=O)/N=C2\NC(=O)NC2=C(Cl)Cl)cc1    25.7% (inactive)

We now examine a further compound.
-- ask Answer with the recorded growth for the compound listed here: `O=C(Oc1ccc2ccc(=O)oc2c1)c1ccc(Cl)cc1`
-- reply 94.2% (inactive)

====

Examples of molecules with documented growth follow.
# System: HCT-116 colon
# method.description: NCI-60 one-dose screen, 48 h (100 = growth as untreated, 0 = no growth, -100 = all killed)
# condition.summary: 10 µM unless noted
# Description: Growth inhibition of the HCT-116 human tumor cell line is measured as a screen for anti-cancer activity. Cells are grown in 96 well plates and exposed to the test compound for 48 hours. Compounds are tested at a single concentration, which is 10^-5 M for most compounds. The reported endpoint is percent growth (GI% or GIPRCNT), where numbers from 0 - 100% represent growth inhibition, and numbers from -100% - 0 represent cell death. For example, a value of 40 represents 60% growth inhibition. […]
This is part of a sample that, as a whole, favours compounds with a hit. Of some 83,000 tested, about 20% had one in any assay.
Please reply with the bare figure in % and do not write the unit itself.

These solved cases illustrate the format of a correct answer.
CC(C)NC(=O)c1cc(-c2ccc(NC(=O)Nc3ccc(N4CCOCC4)c(C(F)(F)F)c3)cc2)nc2cccnc12    63.9
Cn1cc(-c2cc(N)n3nc(-c4cn(C)c5ccc(F)cc45)cc3n2)c2cc(F)ccc21    -92.8
Clc1ccc2c(NCCCN3CCOCC3)c3oc4ccc(Cl)cc4c3nc2c1    23.4
C/C(=N\NC(N)=O)c1c(O)sc(=O)[nH]c1=O    91

We now examine a further molecule.
-- ask Answer with the recorded growth for the molecule listed here: `OC1CCN(CCCOc2c3ccc(Cl)cc3nc3c2oc2ccc(Cl)cc23)CC1`
-- reply 12.3

Hey, just so you know, these numbers are from PubChem BioAssay (NCI).
